Each entry below carries its reported apparent KD of MS2 coat protein.
- Tested on: MS2 coat protein
- Experiment Description: apparent KD of MS2 coat protein; designed switch direction (-1 OFF switch, 1 ON switch): 1; higher = weaker reporter binding
- Applied Conditions: input ligand: FMN 200 uM

{"columns": ["Seq", "Unit Info", "apparent KD of MS2 coat protein"],
 "data": [
  ["GGUAGGUUACUACCAAUCUACAUGAGGAUCACCCAUGUGUGGAAGGAUAUGGUACCUAUUUGGUACCAGAAGGUCCAAUUAAUU [Fiskers NG3ss - 7] (Eterna round: R96, puzzle: Same State NG 3)", "nM", 179],
  ["GCGAGCGUACUUGCAGACAUGAGGAUCACCCAUGUAACUGGACAGGAUAUGGUACCGUUUCGGUACCAGAAGGGUUUAUAUGUC [JL SSNG3 3.52] (Eterna round: R96, puzzle: Same State NG 3)", "nM", 40.4],
  ["CGCAUCAUUGUUACAUGAGGAUCACCCAUGUUUUCGAGUGGAGAGGAUAUCGUAACAGUAUAAAUCGAGAAGGCUCUAUAGUAU [JR_SSNG3_Sub082] (Eterna round: R96, puzzle: Same State NG 3)", "nM", 34.1]
]}

* * *

- Test system: MS2 coat protein
- Experiment Description: apparent KD of MS2 coat protein; designed switch direction (-1 OFF switch, 1 ON switch): 1; higher = weaker reporter binding
- Applied Conditions: Eterna round: R95; input ligand: FMN 200 uM
Assay Metric: apparent KD of MS2 coat protein (nM)

{"columns": ["Seq", "Measurement Target", "Unit Info", "Reported Measurement"],
 "data": [
  ["AGUCCAGCCAAAGCUGGACAAAAGCAUGUACAUGAGGAUCACCCAUGUUCAUGUACAAGCUUUUUGCAAGUCAAAAG [Mat - hsa-mir-208a - Mod of JL - 77] (puzzle: Sensor for hsa-mir-208a)", "MS2 coat protein", "nM", 332],
  ["AGUCCUGAAAAGAAAAUACAGAGAGAUGUACAUGAGGAUCACCCAUGUCAUGUACAAGUUCUAUGCUCGUCAUAUAA [Sensorship 22 - Jieux - Sensor for hsa-mir-208a] (puzzle: Sensor for hsa-mir-208a)", "MS2 coat protein", "nM", 510],
  ["UCAAGCGAGAGGCUCGUCUUAUGUUUGGUACAUGAGGAUCACCCAUGUUAGGGACGAUUUAGUUAGAUGGAAUUUUG [JR_SHM208A_Sub035] (puzzle: Sensor for hsa-mir-208a)", "MS2 coat protein", "nM", 48.5],
  ["GCGCAGCUGAGUGAGGAUAUCGGUGGUAAAACAUGAGGAUCACCCAUGUCCGAAGCUCGGACUUCCGAGAAGGCACCCGGCUGCA [Inisusbeor] (puzzle: Same State 2)", "MS2 coat protein", "nM", 11.9],
  ["GGUCCAGCCUGAGCUGGACUAUAGCAUGUACAUGAGGAUCACCCAUGUCAUGUACAAGUAUGUUGUUUGUCUUGAAA [Sensorship 6 - Jieux - Sensor for hsa-mir-208a] (puzzle: Sensor for hsa-mir-208a)", "MS2 coat protein", "nM", 21.4],
  ["GUAUAACAUGAGGAUCACCCAUGUCAUCUAAGUCGAGGAUAUGGGAAUUAAUUAAUUAAACCAGAAGGCGAAAAUG [Mat - Same State 1 - D93] (puzzle: Same State 1)", "MS2 coat protein", "nM", 48.2],
  ["AGUCCUGAAUAAAUUAAACAGAGACAUGUACAUGAGGAUCACCCAUGUCAUGUACAAGUUCUAUGCUCGUCAUAUAA [Sensorship 19 - Jieux - Sensor for hsa-mir-208a] (puzzle: Sensor for hsa-mir-208a)", "MS2 coat protein", "nM", 23],
  ["AGUCCAGCAAGAGCUGGACAAAAGCAUGUACAUGAGGAUCACCCAUGUUCAUGUACAAGCUUUUAGCUCGUCUUAAA [Mat - hsa-mir-208a - Mod of JL - 58] (puzzle: Sensor for hsa-mir-208a)", "MS2 coat protein", "nM", 505],
  ["CUGCAACAUGAGGAUCACCCAUGUAACCCAAUUAUAGGAUAUGUGAUGGUGAUCGACAUGACAGAAGGGUGAUUGG [Arinra] (puzzle: Same State 1)", "MS2 coat protein", "nM", 199],
  ["AUAAAACAUGAGGAUCACCCAUGUCAACAAAGUCGAGGAUAUGGGCAUAUAAAAUAAGAACCAGAAGGCGAAUAAU [salish99_ss1_r3_026] (puzzle: Same State 1)", "MS2 coat protein", "nM", 32.2],
  ["AUAACCCGUGCUAAGGAUAUGCGUACUCCUACAUGAGGAUCACCCAUGUCCCGCCGAAAAGGAAGGCAGAAGGUAGCACGGGCCG [Lasoleri] (puzzle: Same State 2)", "MS2 coat protein", "nM", 45.7],
  ["AGUCCAGCCUGAGCUGGACAAAAGCAUGUACAUGAGGAUCACCCAUGUUCAUGUACAAGCUUUUUGCUCGUCUUCAA [salish99_208a_r3_097x] (puzzle: Sensor for hsa-mir-208a)", "MS2 coat protein", "nM", 701],
  ["UAACAACAUAUAGAACAAGCGUGCUCGUCACAUGAGGAUCACCCAUGUCUAAGCGCUGUACCUACAUCCUCAGCGCC [Raononbeen] (puzzle: Sensor for hsa-mir-208a)", "MS2 coat protein", "nM", 105],
  ["GAAGAACAUGAGGAUCACCCAUGUAGGCGGAAGCUAGGAUAUGCGGGAAAGAAGAGAGAAGCAGAAGGAGUAGGUA [JR_SS1_Sub030] (puzzle: Same State 1)", "MS2 coat protein", "nM", 28.1],
  ["UUUAGUUGCGGGCAGGAUAUGUAUUAAAAUACAUGAGGAUCACCCAUGUGAGGCCGAAAAGGCCUACAGAAGGGCCAAUCGCGAC [Laonerce - 22] (puzzle: Same State 2)", "MS2 coat protein", "nM", 19.7],
  ["AGUCCAGCCUGAGCUGGACAAAAGCAUGUACAUGAGGAUCACCCAUGUUCAUGUACAAGCUUUUUGCUCGUCUUACC [salish99_208a_r3_079] (puzzle: Sensor for hsa-mir-208a)", "MS2 coat protein", "nM", 669],
  ["GGCAGGUGCAGGCUUGCUUGCACCUGGAAACAUGAGGAUCACCCAUGUUUGGGACAAGCUUUGCUCCUCGUCUUAUC [JL ViennaUCT Isusreraar mod 1] (puzzle: Sensor for hsa-mir-208a)", "MS2 coat protein", "nM", 179],
  ["AGUCCAGCCUGAGCUGGACAAAAGCAUGUACAUGAGGAUCACCCAUGUUCAUGUACAAGCUUUUUGCAAGUCAAAAU [Mat - hsa-mir-208a - Mod of JL - 80] (puzzle: Sensor for hsa-mir-208a)", "MS2 coat protein", "nM", 723],
  ["GGAGCCGGCACCGAGGAUAUUCAUAUUAAAACAUGAGGAUCACCCAUGUACGCCAGAAGGCGUUGGGAGAAGGCGGAUCGGCUCG [Xeonanis - 22] (puzzle: Same State 2)", "MS2 coat protein", "nM", 57.6]
]}

* * *

- System: K4 kissing-loop RNA reporter;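 note: bound reporter read as fluorescence of individual clusters on recovered sequencing chips by microscopy, with normalized cluster intensities fitted with a binding model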
- Experiment Description: apparent KD of K4 kissing-loop reporter; higher = weaker reporter binding
- Applied Conditions: Eterna round: R107; input ligand: arginine 13.2 mM

{"columns": ["Seq", "Unit Info", "apparent KD of K4 kissing-loop reporter"],
 "data": [
  ["UCUAACGUUGAGGCGGCAGCGGGCCCAUCUAAGGAUAUCGGUUUACCGAGAAGGUAGUUGGACGAGAGUGAUGUUCUAUUGAGAG [theeternabot_sameState_KL_FMN_A_18]", "nM", 211],
  ["CCUUCCUAAAACGAUACCAGUUUCUAUCCUCAAUCCAGUGAUGUUGAAUUGAGCUCACAGAACCCUUGGCAGCGUCGCUAUACGG [theeternabot_sameState_KL_Theo_B_39]", "nM", 202],
  ["UCCUAGGCUCGAAAGAGCCUAGGAUUAACUCAGGAUAUCCGGAAACGGAGAAGGGAGUAACUAGUGAUGUUAGGGAUUCCCUAUU", "nM", 94],
  ["GGAUUGCCAGUGAUGUUGGCAUAAACUGAAGGAGCGCGUGAAAACGCAGGUAGGUCGCAGAACCUUGCCAACUGAUCGAAAGAUC [Ex Arginine A K4 29]", "nM", 138],
  ["GCCUACGAUGCAGGAUAUAGCUCGCGAGUGAUGUUCGCAGCUGUAUGGUAGUAAACUUCCACGUGUCUAGAAGGGCAUCGUAGGC", "nM", 79.7],
  ["AUUUAUCCGUCCAGCUGAGUGAUGUUUAGCCGAGGACCGGUACGGCCGCCACUCGUAAGAACCUGUUACGUUGGCUCCUGUGGUG [theeternabot_exclusion_KL_Trp_A_49]", "nM", 196],
  ["GCCCGAAAGGGCCGAAGUGUUUGCGGCGAUCGAGGACCGGUACGGCCGCCACUCGUCGAGGCGUUCAGUGAUGUUGAAAGCAUGA", "nM", 257],
  ["GGUAGCAUGGCGGCCGCCACUCGCUAGUGAUGUUAGCGGGAUGAGACAAAGGACAUAACUUUAUCGAGGACCGGGCCAUGCUACC", "nM", 66.5],
  ["UGGUUUAACUGAAGGAGCGGCAAUUGAUAAGUAAAUAUAGUGAUGUUAUAUAAGAUAGAGAGCCAGGUAGGUCGCAGAGGUAUUU [ExArgB.O]", "nM", 147],
  ["UGACUGGACUGAAGGAGCGCUAAACUCCUAGUGAUGUUAGGAAAACGAGACAAAGUCUCGAAGCAGGUAGGUCGCAGUCUAGUCU", "nM", 147],
  ["ACGAAGGAUGGAAGGAGCGCUCGUCAGUCCUGCGAGUGAUGUUCGUGGGUAAAUAUUCGCGAGCAGGUAGGUCGCCAUCUUGAGC [Soregeor]", "nM", 115],
  ["CCGACUGCAGGAAGGAGCGGCGGUUGGAGUGAUGUUCCAGGUAGUGAUGUUACCAAGAUCCGCCAGGUAGGUCGCCUGUUGCUCA [Same State Arginie B GF 12]", "nM", 106]
]}
